Where do the numbers come from? From patent US11964941B2.

Molecular target: CDK2/cyclin A (Homo sapiens, UniProt P24941)
Assay: Kinase profiling in vitro, CDK2/cyclin A
Conditions: recombinant CDK2/cyclin A, 33P-ATP, 120 min
measured.attribute: IC50
Put your answer as a value accompanied by its unit after it.

What measured IC50 goes with CNCCO/N=C1/C(=C2/C(=O)Nc3ccc(Br)cc32)Nc2ccccc21 [5IN-1NH1s] ?
1.08 nM

---

Target: FLT3 (D835Y) (Homo sapiens, UniProt P36888, D835Y)
Assay: In vitro kinase assay, recombinant FLT3 (D835Y)
Conditions: 33P-ATP, 120 min
measured.attribute: IC50

{"entry.smiles": "O=C1Nc2ccc(Br)cc2C1=C1Nc2ccccc2C1=NOCCN1CCNCC1", "IC50": "< 0.5 nM"}

Given the compound CNCCO/N=C1/C(=C2/C(=O)Nc3ccc(Br)cc32)Nc2ccccc21 , what is its reported IC50?
< 0.5 nM

---

Molecular target: KDR/vEGFR2 (Homo sapiens)
Sequence (P35968 20-1356): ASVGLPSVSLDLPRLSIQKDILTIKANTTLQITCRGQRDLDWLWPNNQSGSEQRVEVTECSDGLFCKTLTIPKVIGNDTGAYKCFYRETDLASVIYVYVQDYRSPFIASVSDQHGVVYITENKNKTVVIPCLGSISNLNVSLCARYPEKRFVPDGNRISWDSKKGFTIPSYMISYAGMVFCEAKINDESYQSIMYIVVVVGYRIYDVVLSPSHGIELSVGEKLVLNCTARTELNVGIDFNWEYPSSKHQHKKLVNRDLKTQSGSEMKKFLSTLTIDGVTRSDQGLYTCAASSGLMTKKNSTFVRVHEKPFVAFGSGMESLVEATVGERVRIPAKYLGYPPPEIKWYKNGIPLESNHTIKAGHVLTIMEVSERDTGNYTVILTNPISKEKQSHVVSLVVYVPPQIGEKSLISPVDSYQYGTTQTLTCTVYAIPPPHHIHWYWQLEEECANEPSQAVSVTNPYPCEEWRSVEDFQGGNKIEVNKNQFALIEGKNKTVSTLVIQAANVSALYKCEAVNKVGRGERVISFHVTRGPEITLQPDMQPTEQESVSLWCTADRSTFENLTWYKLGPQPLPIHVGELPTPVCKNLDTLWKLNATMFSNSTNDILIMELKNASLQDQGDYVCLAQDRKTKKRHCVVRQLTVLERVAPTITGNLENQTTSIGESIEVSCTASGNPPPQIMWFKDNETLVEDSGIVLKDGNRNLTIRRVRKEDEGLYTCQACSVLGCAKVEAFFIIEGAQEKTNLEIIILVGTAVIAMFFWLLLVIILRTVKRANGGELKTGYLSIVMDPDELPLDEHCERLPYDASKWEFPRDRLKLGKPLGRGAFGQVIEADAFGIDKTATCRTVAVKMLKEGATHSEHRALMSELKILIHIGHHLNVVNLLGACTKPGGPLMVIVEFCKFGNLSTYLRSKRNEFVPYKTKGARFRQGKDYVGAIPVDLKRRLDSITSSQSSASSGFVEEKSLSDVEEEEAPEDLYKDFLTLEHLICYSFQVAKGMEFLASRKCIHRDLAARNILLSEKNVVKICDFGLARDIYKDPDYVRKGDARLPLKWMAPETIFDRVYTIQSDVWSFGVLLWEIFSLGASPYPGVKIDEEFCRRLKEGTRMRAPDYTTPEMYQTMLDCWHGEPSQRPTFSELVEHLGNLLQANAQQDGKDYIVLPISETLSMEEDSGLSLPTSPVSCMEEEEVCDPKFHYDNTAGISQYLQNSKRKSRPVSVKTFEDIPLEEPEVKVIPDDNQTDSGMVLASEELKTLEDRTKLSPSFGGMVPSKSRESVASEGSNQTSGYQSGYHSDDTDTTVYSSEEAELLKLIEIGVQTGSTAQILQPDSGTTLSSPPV
Experiment: Kinase profiling in vitro, KDR/vEGFR2
Conditions: recombinant KDR/vEGFR2, 33P-ATP, 120 min
measured.attribute: pIC50
# pIC50: negative log10 of molar concentration; output just the value

Need pIC50, item CNCCO/N=C1/C(=C2/C(=O)Nc3ccc(Br)cc32)Nc2ccccc21
6.61
